# assay target: human serotonin transporters (Homo sapiens)
# Construct: expressed in transfected cells; host or cells: HEK-293 (HEK-hSERT), membrane homogenates
# Sequence (P31645 whole entry): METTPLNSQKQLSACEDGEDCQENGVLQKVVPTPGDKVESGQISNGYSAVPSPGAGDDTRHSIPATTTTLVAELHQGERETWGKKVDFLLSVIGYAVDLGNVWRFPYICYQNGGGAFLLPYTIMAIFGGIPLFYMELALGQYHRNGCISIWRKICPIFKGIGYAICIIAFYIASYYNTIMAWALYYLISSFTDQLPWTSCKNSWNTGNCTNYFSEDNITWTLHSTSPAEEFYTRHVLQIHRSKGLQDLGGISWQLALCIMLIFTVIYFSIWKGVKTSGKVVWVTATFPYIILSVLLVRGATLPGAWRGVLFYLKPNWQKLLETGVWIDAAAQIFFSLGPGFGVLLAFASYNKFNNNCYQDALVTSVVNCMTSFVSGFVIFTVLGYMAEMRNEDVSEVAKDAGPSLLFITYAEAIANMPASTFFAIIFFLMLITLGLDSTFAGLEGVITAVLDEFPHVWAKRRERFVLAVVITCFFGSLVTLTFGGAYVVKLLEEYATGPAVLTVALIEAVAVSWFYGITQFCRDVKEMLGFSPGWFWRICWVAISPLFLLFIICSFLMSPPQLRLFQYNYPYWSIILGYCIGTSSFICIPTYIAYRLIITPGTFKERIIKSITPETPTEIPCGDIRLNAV
# assay explanation: Serotonin Transporter Binding Assay
# experimental context: HEK-hSERT cell membranes, 1 nM [3H]-citalopram, Cheng and Prusoff; read-out: SERT Ki
Counter-ions that a name gives are not always drawn.
metric: Ki

{"compound": "CCCNC[C@@H]1C[C@H]1c1c[nH]c2ccc(C#N)cc12 (relative stereo)", "assay target": "human serotonin transporters (Homo sapiens)", "Ki": "10 to 100 nM"}
{"compound": "CNCC1CC1c1csc2ccccc12 (centres unmarked)", "assay target": "human serotonin transporters (Homo sapiens)", "Ki": "10 to 100 nM"}
{"compound": "CN(C)C[C@@H]1C[C@H]1c1c[nH]c2ccc(C#N)cc12 [Example 127a, maleate salt]", "assay target": "human serotonin transporters (Homo sapiens)", "Ki": "10 to 100 nM"}
{"compound": "COC(=O)NCCCN(C)C[C@@H]1C[C@H]1c1c[nH]c2ccc(F)cc12 (relative stereo)", "assay target": "human serotonin transporters (Homo sapiens)", "Ki": "10 to 100 nM"}

IN: Report Ki for N#Cc1ccc2[nH]cc(C3CC3CN3CCCC3)c2c1 (centres unmarked) please.
OUT: 1 to 10 nM
